Target: T1, Anti-PSMA Fab (SEQ ID NOs: 19, 20)
T1 construct: Biotinylated and captured on neutravidin coated plates in the phage ELISA; also called 006 PSMA Fab
Experiment: phage binding ELISA; biotinylated anti-PSMA Fab captured on neutravidin plate, clonal phage supernatant, anti-M13 HRP detection
parameter: Anti-PSMA Fab (SEQ ID NOs: 19, 20) signal

The binder identified as HLFCWEGSDRCAWV (tested as crude phage supernatant) [Phage-1727 (clonal phage displaying the peptide of SEQ ID NO: 2011)] registered its Anti-PSMA Fab (SEQ ID NOs: 19, 20) signal at 1.4

The binder identified as NCFFAADIHWNFCT (tested as crude phage supernatant) [Phage-1731 (clonal phage displaying the peptide of SEQ ID NO: 2015)] registered its Anti-PSMA Fab (SEQ ID NOs: 19, 20) signal at 1.48

The binder identified as EGCLTLVDGRAWCW (tested as crude phage supernatant) [Phage-1735 (clonal phage displaying the peptide of SEQ ID NO: 2019)] registered its Anti-PSMA Fab (SEQ ID NOs: 19, 20) signal at 1.05
